tgt: Recombinant Human CTLA4-Fc chimera (R&D systems) (human) (UniProt P16410)
experiment.summary: ELISA, purified MBP fusion on immobilised CTLA-4
Measured pEC50 by item
// field semantics: pEC50 = negative decimal log of concentration (mol/L)

Take a look at these entries with their results.
{"binder": "GGCMHPYLPVISHHFCGR (peptide, not shown: large carriers; small tags and cut ends) [C4-302mat-3-100-12]", "pEC50": 6.66}
{"binder": "GGCLHPFLPLVSHHFCGG (peptide, not shown: large carriers; small tags and cut ends) [C4-302mat-2-1-38]", "pEC50": 6.06}
{"binder": "GSCMHPFLPVASRHFCGR (peptide, not shown: large carriers; small tags and cut ends) [C4-302mat-3-1-31]", "pEC50": 6.47}
{"binder": "GGCMHPFLQVVSHHFCGG (peptide, not shown: large carriers; small tags and cut ends) [C4-302mat-2-100-4]", "pEC50": 5.38}
{"binder": "GGCMHPFLPIASLHFCGR (peptide, not shown: large carriers; small tags and cut ends) [C4-302mat-3-1-23]", "pEC50": 6.80}

Exercise: // returns reported pEC50 for input GGCMHPFLQTVSHHFCGG (peptide, not shown: large carriers; small tags and cut ends) [C4-302mat-3-1-35]
Key: 6.18

Exercise: Next entry: GGCRHPFLPIVSRHFCRG (peptide, not shown: large carriers; small tags and cut ends) [C4-302mat-3-1-45]
Key: 6.52

Exercise: Continue with GGCMHPFLPVVSRHFCGR (peptide, not shown: large carriers; small tags and cut ends) [C4-302mat-3-1-12]
Key: 7.07

Exercise: Moving on to the next binder: GGCKHPYLPVASHHFCRG (peptide, not shown: large carriers; small tags and cut ends) [C4-302mat-3-1-10]
Key: 6.15

Exercise: And for GGCMHPFLPVVSHHFCGR (peptide, not shown: large carriers; small tags and cut ends) [C4-302mat-3-100-37] ?
Key: 6.65

Exercise: Then what about the binder GGCVHPFLPVVSHHFCRG (peptide, not shown: large carriers; small tags and cut ends) [C4-302mat-3-100-20] ?
Key: 6.05

Source: patent US20240092836A1
